Origin of measurements: ChEMBL document CHEMBL1149581

protocol: Aqueous solubility of the compound
Assay type: physicochemical
measurementLabel: solubility (mg/mL)
Your answer is read as mg/mL, so omit the unit and give the number.

Fill blank: measured solubility of the compound O=C([O-])c1cc(/N=N/C(Cc2c[nH]c3ccccc23)C(=O)[O-])ccc1O.[Na+].[Na+] (stereo unspecified) is ____.
280

----------
protocol: Partition coefficient, log P in n-octanol/phosphate buffer at pH 7.4
Type: physicochemical
measurementLabel: logD
// no unit, no text: just the number

INSERT INTO measurements (compound, measurementlabel, recordednumber) VALUES
  ('Nc1ccc(O)c(C(=O)O)c1 [MESALAMINE]', 'logD', 0.64);

Please find the next compound below.
Fill blank: measured logD of the compound O=C([O-])c1cc(/N=N/C(Cc2c[nH]c3ccccc23)C(=O)[O-])ccc1O.[Na+].[Na+] (configuration not stated) is ____.
0.26
